Each record here notes measured IC50.
System: H2405 cells
Assay: H2405 Cell Proliferation Assay (1)
Type: cell-based
Conditions: Homo sapiens, NCI-H2405

- STRUCTURE_AS_SMILES: "CNC(=O)c1cc(-c2cccc(-c3cc(NC(=O)c4ccnc(C(C)(C)C#N)c4)cnc3C)c2)cnn1"
  IC50: "0.1 to 0.5 µM"
- STRUCTURE_AS_SMILES: "CNC(=O)c1cc(-c2cc(-c3cc(NC(=O)c4ccnc(C(C)(C)C#N)c4)ccc3OC)ccn2)ccn1"
  IC50: "0.1 to 0.5 µM"
- STRUCTURE_AS_SMILES: "Cc1ccc(NC(=O)c2ccnc(C(C)(C)F)c2)cc1-c1ccnc(-c2ccnc(NC(=O)C3CC3)c2)n1"
  IC50: "≤ 0.1 µM"
- STRUCTURE_AS_SMILES: "CCOc1ncc(-c2cc(NC(=O)c3ccnc(C(F)(F)F)c3)ccc2C)cc1-c1ccnc(NC(C)=O)c1"
  IC50: "0.1 to 0.5 µM"
- STRUCTURE_AS_SMILES: "Cc1cc(F)c(NC(=O)c2ccnc(C(C)(C)F)c2)cc1-c1cncc(-c2ccnc(NC(=O)C3CC3)c2)n1"
  IC50: "≤ 0.1 µM"
- STRUCTURE_AS_SMILES: "Cc1ccc(NC(=O)c2ccnc(C(F)F)c2)cc1-c1ccnc(-c2ccnc(NC(=O)C3CC3)c2)n1"
  IC50: "0.1 to 0.5 µM"
- STRUCTURE_AS_SMILES: "Cc1ccc(NC(=O)c2cn(C(C)C)nn2)cc1-c1cncc(-c2cc(NC(=O)C3CC3)ncn2)c1"
  IC50: "≤ 0.1 µM"
- STRUCTURE_AS_SMILES: "Cc1ccc(NC(=O)c2ccnc(C(C)(C)C#N)c2)cc1-c1ccnc(-c2ccnc3c2CC(=O)N3)c1"
  IC50: "0.1 to 0.5 µM"
- STRUCTURE_AS_SMILES: "CNC(=O)c1cc(-c2cccc(-c3cc(NC(=O)c4ccnc(C(C)(C)C#N)c4)cnc3C)c2)ccn1"
  IC50: "0.1 to 0.5 µM"
- STRUCTURE_AS_SMILES: "COC(=O)Nc1cc(-c2cncc(-c3cc(NC(=O)c4ccnc(C(C)(C)F)c4)c(F)cc3C)c2)ccn1"
  IC50: "0.1 to 0.5 µM"
- STRUCTURE_AS_SMILES: "COC(=O)Nc1cc(-c2cnnc(-c3cc(NC(=O)COCC4CC4)ccc3C)c2)ccn1"
  IC50: "1 to 10 µM"
- STRUCTURE_AS_SMILES: "COC(=O)Nc1cc(-c2cccc(-c3cc(NC(=O)c4ccnc(C(C)(C)F)c4)cnc3C)c2)ccn1"
  IC50: "0.5 to 1 µM"
- STRUCTURE_AS_SMILES: "COC(=O)Nc1cc(-c2cccc(-c3cc(NC(=O)c4ccnc(C5CC5)c4)cnc3C)c2)ccn1"
  IC50: "1 to 10 µM"
- STRUCTURE_AS_SMILES: "COCC(=O)Nc1cc(-c2cccc(-c3cc(NC(=O)c4ccnc(C(F)(F)F)c4)cnc3C)n2)ccn1"
  IC50: "0.1 to 0.5 µM"
- STRUCTURE_AS_SMILES: "Cc1ccc(NC(=O)c2ccnc(C(C)(C)F)c2)cc1-c1cncc(-c2cc(NC(=O)C3CC3)ncn2)c1"
  IC50: "≤ 0.1 µM"
